Let's look at some binders and their measured pIC50.
# MEASURED ON: T1, biotinylated dimeric human CD48 protein expressed as a fusion with mouse IgG2a Fc (human, biotinylated)
# T1 construct: also called bio-hCD48-mFc; Dimeric human CD48-mFc
# T1 chain: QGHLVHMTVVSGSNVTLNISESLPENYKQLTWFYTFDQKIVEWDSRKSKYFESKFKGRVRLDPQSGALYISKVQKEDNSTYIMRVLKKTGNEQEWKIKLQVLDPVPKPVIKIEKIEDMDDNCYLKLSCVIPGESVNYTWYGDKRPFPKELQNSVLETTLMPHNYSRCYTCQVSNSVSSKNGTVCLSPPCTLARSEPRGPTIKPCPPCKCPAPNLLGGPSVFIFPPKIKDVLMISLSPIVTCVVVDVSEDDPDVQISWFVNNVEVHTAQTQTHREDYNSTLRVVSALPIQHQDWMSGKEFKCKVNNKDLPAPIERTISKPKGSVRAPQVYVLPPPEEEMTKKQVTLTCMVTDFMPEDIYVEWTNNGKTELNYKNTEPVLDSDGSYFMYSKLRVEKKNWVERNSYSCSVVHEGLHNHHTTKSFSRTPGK
# TEST DESCRIPTION: competition ELISA; blocks bio-hCD48-mFc binding to coated h2B4-mFc
pIC50 here is simply -log10 of the concentration when that concentration is written in mol/L.

Req: Supply reported pIC50 belonging to this binder: H4H1781P (antibody, human IgG4, V domains shown, Human IgG4 Fc (H4H)) VH: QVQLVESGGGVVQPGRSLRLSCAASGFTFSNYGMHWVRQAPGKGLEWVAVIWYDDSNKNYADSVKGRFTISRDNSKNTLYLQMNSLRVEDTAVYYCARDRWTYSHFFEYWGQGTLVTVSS VL: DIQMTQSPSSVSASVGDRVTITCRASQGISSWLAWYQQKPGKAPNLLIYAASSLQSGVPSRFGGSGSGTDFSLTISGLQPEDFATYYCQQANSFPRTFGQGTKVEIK
Resp: 10.74

Req: Tell me pIC50 reported for H4H1772P (antibody, human IgG4, V domains shown, Human IgG4 Fc (H4H)) VH: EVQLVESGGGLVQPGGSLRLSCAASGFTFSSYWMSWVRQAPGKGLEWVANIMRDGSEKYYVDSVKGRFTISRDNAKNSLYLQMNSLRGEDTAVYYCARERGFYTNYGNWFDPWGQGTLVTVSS VL: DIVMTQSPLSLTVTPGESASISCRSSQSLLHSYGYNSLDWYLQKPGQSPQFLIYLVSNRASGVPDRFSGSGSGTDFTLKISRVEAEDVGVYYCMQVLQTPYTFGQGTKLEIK
Resp: 10.85

Pending binder:
Req: Return reported pIC50. Input binder: H4H1707N (antibody, V domains shown, Human IgG4 Fc (H4H) form of 1707N) VH: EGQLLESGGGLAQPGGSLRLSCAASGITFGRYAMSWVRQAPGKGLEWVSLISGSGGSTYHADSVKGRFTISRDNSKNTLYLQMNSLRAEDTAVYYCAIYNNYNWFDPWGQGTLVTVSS VL: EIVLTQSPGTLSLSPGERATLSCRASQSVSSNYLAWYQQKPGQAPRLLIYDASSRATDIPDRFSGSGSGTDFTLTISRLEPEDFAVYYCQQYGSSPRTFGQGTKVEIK
Resp: 10.66
